Where these numbers come from: patent US4789683A

# System: DA receptors in the brain
# Test method notes: Block of apomorphine-induced hyperactivity in the rat
# Assay type: in vivo, Male Sprague-Dawley rats
# Conditions used: i.p.; 60 min prior to apomorphine HCl 1 mg/kg s.c.
Each record is given criterion met if its reported Block of apomorphine ED50, hyperactivity is strictly below 0.3 µmol/kg. Records at or above 0.3 µmol/kg are given criterion not met.

> print(dat)
                                   molecule            measured.target        label.class
1  CCN1CCCC1CNC(=O)c1c(OC)ccc(Br)c1O (single isomer, unassigned) [FLA 797 (-)]  DA receptors in the brain      criterion met
2  CCCN1CCCC1CNC(=O)c1c(OC)ccc(Br)c1O (single isomer, unassigned) [FLA 889 (-)]  DA receptors in the brain      criterion met
3  CCN1CCCC1CNC(=O)c1c(O)ccc(Br)c1OC (stereo not drawn) [FLA 908]  DA receptors in the brain  criterion not met
4  CCN1CCCC1CNC(=O)c1c(O)c(Br)cc(Br)c1OC (single isomer, unassigned) [FLA 659 (-)]  DA receptors in the brain  criterion not met
5  CCN1CCCC1CNC(=O)c1c(OC)ccc(Cl)c1O (single isomer, unassigned) [FLA 814 (-)]  DA receptors in the brain      criterion met
6  CCN1CCCC1CNC(=O)c1cc(S(N)(=O)=O)ccc1OC (stereo not drawn) [Sulpiride, reference compound]  DA receptors in the brain  criterion not met

Q. Item CCN1CCCC1CNC(=O)c1c(O)c(Cl)cc(Cl)c1OC (single isomer, unassigned) [FLA 870 (-)] : Block of apomorphine ED50, hyperactivity beneath 0.3 µmol/kg, strictly?
A. criterion met

Q. Is Block of apomorphine ED50, hyperactivity of CCOc1ccc(Br)c(O)c1C(=O)NCC1CCCN1CC (stereo not drawn) [FLA 901] strictly below 0.3 µmol/kg?
A. criterion not met

Q. Lab note: confirm whether the reported Block of apomorphine ED50, hyperactivity for this molecule is below 0.3 µmol/kg, equality not counting. molecule: CCN1CCCC1CNC(=O)c1c(OC)ccc(Br)c1O (stereo not drawn) [FLA 797]
A. criterion met

---

The following compounds are listed with their measured ED50 values.
# Measured target: DA receptors in the brain (Rattus norvegicus)
# Construct: from tissue; host or cells: brain of live male Sprague-Dawley rats (in vivo behavioural test)
# Sequence (P61169 whole entry): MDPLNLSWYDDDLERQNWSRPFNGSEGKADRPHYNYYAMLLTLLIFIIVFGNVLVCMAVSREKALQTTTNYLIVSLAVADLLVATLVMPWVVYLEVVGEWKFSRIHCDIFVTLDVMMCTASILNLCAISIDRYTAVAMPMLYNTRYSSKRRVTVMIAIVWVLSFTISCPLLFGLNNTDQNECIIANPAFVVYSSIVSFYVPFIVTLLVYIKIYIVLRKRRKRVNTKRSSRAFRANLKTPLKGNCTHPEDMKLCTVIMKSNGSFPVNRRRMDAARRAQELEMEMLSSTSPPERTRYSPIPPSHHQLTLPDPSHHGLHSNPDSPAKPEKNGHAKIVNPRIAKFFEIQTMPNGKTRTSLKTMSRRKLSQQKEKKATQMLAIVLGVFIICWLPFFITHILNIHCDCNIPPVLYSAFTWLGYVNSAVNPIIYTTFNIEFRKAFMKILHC
# Test method notes: Block of apomorphine-induced stereotypies in the rat (0-3 scale)
# Assay type: in vivo, Male Sprague-Dawley rats
# Conditions used: rat, ip; 60 min prior to apomorphine HCl 1 mg/kg s.c.; read-out: Block of apomorphine ED50, stereotypes
A number alone suffices; assume µmol/kg.

> print(dat)
                                   compound                           measured.target  units.text  result.number
1  CCN1CCCC1CNC(=O)c1c(OC)ccc(Br)c1O (centres unmarked) [FLA 797]  DA receptors in the brain (Rattus norvegicus)     µmol/kg            1.1
2  CCN1CCCC1CNC(=O)c1c(OC)ccc(Br)c1O (single isomer, unassigned) [FLA 797 (-)]  DA receptors in the brain (Rattus norvegicus)     µmol/kg           0.38
3  CCCN1CCCC1CNC(=O)c1c(OC)ccc(Br)c1O (single isomer, unassigned) [FLA 889 (-)]  DA receptors in the brain (Rattus norvegicus)     µmol/kg           0.75

Q. Name the recorded ED50 for CCOc1ccc(Br)c(O)c1C(=O)NCC1CCCN1CC (centres unmarked) .
A. 3.4

Q. Quick one: ED50 of CCN1CCCC1CNC(=O)c1c(OC)ccc(Cl)c1O (single isomer, unassigned) [FLA 814 (-)] ?
A. 1.1

---

# Measured target: DA receptors in the brain (Rattus norvegicus)
# Construct: from tissue; host or cells: brain of live male Sprague-Dawley rats (in vivo behavioural test)
# Test method notes: Block of apomorphine-induced stereotypies in the rat (0-3 scale)
# Assay type: in vivo, Male Sprague-Dawley rats
# Conditions used: rat, ip; 60 min prior to apomorphine HCl 1 mg/kg s.c.; read-out: Block of apomorphine ED50, stereotypes
Readout label: ED50
Write down the value, and be sure its unit follows.

Worked set:
> print(dat)
                                   compound  readout.label        result
1  CCN1CCCC1CNC(=O)c1c(O)c(Br)cc(Br)c1OC (single isomer, unassigned) [FLA 659 (-)]           ED50   2.3 µmol/kg
2  CCN1CCCC1CNC(=O)c1c(OC)ccc(Br)c1OC(C)=O (stereo not drawn)           ED50  0.53 µmol/kg

Q. Recorded ED50 for CCN1CCCC1CNC(=O)c1c(O)ccc(Br)c1OC (stereo not drawn) with DA receptors in the brain (Rattus norvegicus), please?
A. 10 µmol/kg
